The following variants are shown together with reported abundance fitness values.
B1: Segment polarity protein dishevelled homolog DVL-3, residues 2 to 81; numbered along this chain, Q92997 (parent)
chain: GETKIIYHLDGQETPYLVKLPLPAERVTLADFKGVLQRPSYKFFFKSMDDDFGVVKEEISDDNAKLPCFNGRVVSWLVSA

Variants of: B1
Assay: abundance fitness (aPCA) (normalised: wild type 0, dead -1); higher = more abundant; growth selection in yeast, the domain comes from the species named
Settings: Homo sapiens
No unit in the answer, only the number.

A selection of reference data follows.
1) E57Y -0.222
2) A64P -0.663
3) D31P -0.35

Item: G71D | abundance fitness: -0.482

Item: S60E | abundance fitness: -0.269

From: the Human Domainome abundance scans (Beltran et al. 2025)
